Hello, the source for this data is the Human Domainome abundance scans (Beltran et al. 2025), in case you need it.

B1: 3'-5' exoribonuclease 1, residues 65 to 114; numbered along this chain, Q8IV48 (parent)
chain: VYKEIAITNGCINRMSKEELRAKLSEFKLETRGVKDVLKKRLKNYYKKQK

Variants of: B1
PROTOCOL DESCRIPTION: abundance fitness (aPCA) (normalised: wild type 0, dead -1); higher = more abundant; growth selection in yeast, the domain comes from the species named
TEST CONDITIONS: Homo sapiens
Kindly return Criterion met if reported abundance fitness is no lower than -0.4; return Criterion not met if it is lower.

> print(dat)
                                  seq.string        group.label
 1  VYKEIAITNGCINRMSKEELRAQLSEFKLETRGVKDVLKKRLKNYYKKQK      Criterion met
 2  VYKEIAITNGCINCMSKEELRAKLSEFKLETRGVKDVLKKRLKNYYKKQK      Criterion met
 3  VYKEIAITNGCINRMSKEELRAKLSEFKLYTRGVKDVLKKRLKNYYKKQK      Criterion met
 4  VYKEIAITNGCINRMSKEELRATLSEFKLETRGVKDVLKKRLKNYYKKQK      Criterion met
 5  VYKEIAITNGCINRMSKEELRAKLSEFKLETRGGKDVLKKRLKNYYKKQK      Criterion met
 6  VYKEIAITNGCINRMSKEELRAKLSEFKLETRGVKDVSKKRLKNYYKKQK  Criterion not met
 7  VYKEEAITNGCINRMSKEELRAKLSEFKLETRGVKDVLKKRLKNYYKKQK      Criterion met
 8  VYKEIAITNGCINRMSKEELRAKLSEQKLETRGVKDVLKKRLKNYYKKQK      Criterion met
 9  VYKEIAITNGCINRMSKEELRAKVSEFKLETRGVKDVLKKRLKNYYKKQK  Criterion not met
10  VNKEIAITNGCINRMSKEELRAKLSEFKLETRGVKDVLKKRLKNYYKKQK      Criterion met
11  VYKEIAITNGCINRMSKEELRAKLSECKLETRGVKDVLKKRLKNYYKKQK      Criterion met
12  VYKEIAITNGCINRMSKEELRAKYSEFKLETRGVKDVLKKRLKNYYKKQK  Criterion not met
13  VYKEIAITNGCINRMSKEELRAKLSEFKLETRGVKAVLKKRLKNYYKKQK      Criterion met
14  VYKEIAITNGCIMRMSKEELRAKLSEFKLETRGVKDVLKKRLKNYYKKQK  Criterion not met
15  VYKEIAITNGCINRMSKEELRAKLSEFKTETRGVKDVLKKRLKNYYKKQK  Criterion not met
16  VYKEIAITNGCINRMSKEELRAKLSEFKLETRGVKDWLKKRLKNYYKKQK  Criterion not met
17  VYKEIAITNGCINRMSKEELGAKLSEFKLETRGVKDVLKKRLKNYYKKQK  Criterion not met
18  VYKEIAITNGCINRMSKEELRAKQSEFKLETRGVKDVLKKRLKNYYKKQK  Criterion not met
19  VYKEIAITNGCINRMSKEELRAKLSGFKLETRGVKDVLKKRLKNYYKKQK      Criterion met
20  VYKEIAITNGCINRMSKEELRAKLSEFKLETRGVKDVEKKRLKNYYKKQK  Criterion not met
21  VYKEIAITNGCINRMSKEELRAKLSEFWLETRGVKDVLKKRLKNYYKKQK  Criterion not met
22  VYKEIAITNGCINRMSKEELRAKLSEFKLETRQVKDVLKKRLKNYYKKQK  Criterion not met
23  NYKEIAITNGCINRMSKEELRAKLSEFKLETRGVKDVLKKRLKNYYKKQK      Criterion met
24  VYKEIEITNGCINRMSKEELRAKLSEFKLETRGVKDVLKKRLKNYYKKQK      Criterion met
25  VYKEIAITNGCGNRMSKEELRAKLSEFKLETRGVKDVLKKRLKNYYKKQK  Criterion not met
26  VYKEIAITNGCINRMSKAELRAKLSEFKLETRGVKDVLKKRLKNYYKKQK      Criterion met
27  VYKEIAITMGCINRMSKEELRAKLSEFKLETRGVKDVLKKRLKNYYKKQK      Criterion met
28  VYKEIAITNGCINRNSKEELRAKLSEFKLETRGVKDVLKKRLKNYYKKQK  Criterion not met
29  VYKEIAITNGCINRMSKEELRAKLSEFKLETRGVKDVLKSRLKNYYKKQK  Criterion not met
30  VYKEIAITNGCINRMSKEELRAKLSEFKLETRGVKYVLKKRLKNYYKKQK      Criterion met
31  VYKEIAITNGCINRMSKEELRAKLSEFKLETRGVKEVLKKRLKNYYKKQK      Criterion met
32  VYKEIAITNGCINRMSKEELRAKLSEFKLETRGVKDHLKKRLKNYYKKQK  Criterion not met
33  VYKEIAITNGCINRMSKEEPRAKLSEFKLETRGVKDVLKKRLKNYYKKQK  Criterion not met
34  QYKEIAITNGCINRMSKEELRAKLSEFKLETRGVKDVLKKRLKNYYKKQK      Criterion met
